assay: cytotoxicity CC50 in MT-4 cells (Table 14); assay type: cell-based; settings: human, HIV column
Quantity measured: CC50

# get_value(readout='CC50', item= `NS(=O)(=O)c1ccc(CNc2nccn3c(-c4ccc(O)cc4)cnc23)cc1` )
< 35 µM

###

tested on: VSV; assay: microbe, parasite or virus in culture; assay type: cell-based; conditions: Vesicular stomatitis virus, Vero
pEC50: −log10 of the molar value.
Quantity measured: pEC50

What value of pEC50 has been recorded for this entry: `NS(=O)(=O)c1ccc(CNc2nccn3c(-c4ccc(O)cc4)cnc23)cc1`
< 4.70

###

Assign CC50 to each entry below.
test: cytotoxicity measurement (CC50), Table 13; type: cell-based; conditions: human, Huh7 cells

# query: CC50 of entry NS(=O)(=O)c1ccc(CNc2nccn3c(-c4cccc(F)c4)cnc23)cc1 [Compound 67]
< 35 µM

Need CC50, item COc1cc(-c2cnc3c(NCc4ccc(S(N)(=O)=O)cc4)nccn23)cc(Cl)c1O [Compound 31]
> 35 µM

Which measured CC50 value corresponds to NC(=O)c1cc(-c2cnc3c(NCc4ccc(S(N)(=O)=O)cc4)nccn23)ccc1O [Compound 94] ?
> 35 µM

Need CC50 of NS(=O)(=O)c1ccc(CNc2nccn3c(-c4ccc(O)c(O)c4)cnc23)cc1 [Compound 89] , thanks.
> 35 µM

// query CC50 value for entry CNS(=O)(=O)c1ccc(CNc2nccn3c(-c4ccc(O)cc4)cnc23)cc1 [Compound 103]
> 35 µM

Request the reported CC50 associated with CS(=O)(=O)Nc1cccc(-c2cnc3c(NCc4ccc5c(c4)OCO5)nccn23)c1 [Compound 73]
< 35 µM

Could you tell me which CC50 is on file for Oc1ccc(Nc2nccn3c(-c4cccc(F)c4)cnc23)cc1 [Compound 82] ?
< 35 µM

Given the molecule Cc1cc(O)ccc1-c1cnc2c(NCc3ccc(S(N)(=O)=O)cc3)nccn12 [Compound 33] , what is its reported CC50?
> 35 µM

###

experiment: cytotoxicity measurement (CC50), Table 13; assay type: cell-based; conditions: human, Huh7 cells
Quantity measured: CC50

Param item = `COc1ccc(-c2cnc3c(NCc4cccs4)nccn23)cc1OC` ; retrieve measured CC50.
< 35 µM

Which CC50 value belongs to `Nc1ccc(-c2cnc3c(NCc4ccc(S(N)(=O)=O)cc4)nccn23)cc1` ?
> 35 µM

Reported CC50, molecule `Oc1ccc(-c2cnc3c(NCCc4ccncc4)nccn23)cc1` : ____
< 35 µM

Which CC50 is listed for `Cc1cc(-c2cnc3c(NCc4ccc(S(N)(=O)=O)cc4)nccn23)cc(C)c1O` ?
< 35 µM

GET /values?readout=CC50&item= `COc1ccc(-c2cnc3c(NCCc4ccc(S(N)(=O)=O)cc4)nccn23)cc1OC`
< 35 µM

###

For each of the molecules below, state its CC50.
assay: cytotoxicity measurement (CC50), Table 13; format: cell-based; conditions: human, Huh7 cells

If you can, please state the reported CC50 value of CNC(=O)c1ccc(CNc2nccn3c(-c4ccc(O)cc4)cnc23)cc1 [Compound 49] .
< 35 µM

If you can, please state the reported CC50 value of NS(=O)(=O)c1ccc(CNc2nccn3c(-c4ccccc4)cnc23)cc1 [Compound 74] .
< 35 µM

# get_value(readout='CC50', item= Oc1cccc(-c2cnc3c(NCc4cccnc4)nccn23)c1 [Compound 76] )
< 35 µM

Bench note: what CC50 did NC(=O)c1ccc(CNc2nccn3c(-c4ccc(O)cc4)cnc23)cc1 [Compound 48] show?
> 35 µM

Value lookup for CC50; key = COc1ccc(-c2cnc3c(NCCS(N)(=O)=O)nccn23)cc1OC [Compound 43]
> 35 µM

Record request: CC50 value, item COc1ccc(-c2cnc3c(NCC4CCOCC4)nccn23)cc1OC [Compound 29]
< 35 µM

I have this molecule here, CC(C)c1ccc(Nc2nccn3c(-c4cccc(NS(C)(=O)=O)c4)cnc23)cc1 [Compound 70] , and I need its recorded CC50.
< 35 µM

Query (molecule): COc1ccc(-c2cnc3c(NCc4ccc(S(C)(=O)=O)cc4)nccn23)cc1OC [Compound 19] ; field requested: CC50
> 35 µM

Please report the recorded CC50 for COC(=O)c1ccc(CNc2nccn3c(-c4ccc(OC)c(OC)c4)cnc23)cc1 [Compound 13] .
< 35 µM

Quick check: CC50 of COc1cc(-c2cnc3c(NCc4ccc(S(N)(=O)=O)cc4)ncc(C)n23)ccc1O [Compound 109] ?
< 35 µM

Fill in the blank: the reported CC50 of Oc1ccc(-c2cnc3c(NCc4cccc(Cl)c4)nccn23)cc1 [Compound 99] is ____.
< 35 µM

CC50 for NS(=O)(=O)c1cccc(CNc2nccn3c(-c4ccc(O)c(F)c4)cnc23)c1 [Compound 57] ?
> 35 µM

Given the entry COc1ccc(-c2cnc3c(NCc4ccc(S(N)(=O)=O)cc4)nccn23)cc1OC [Compound 9] , report its measured CC50.
> 35 µM

Need CC50, item COc1ccc(-c2cnc3c(NCCc4ccncc4)nccn23)cc1OC [Compound 62]
< 35 µM

So what's the measured CC50 for this one? Cc1cn2c(-c3ccc(O)c(F)c3)cnc2c(NCc2ccc(S(N)(=O)=O)cc2)n1 [Compound 111]
> 35 µM

Which CC50 is reported for this molecule? COc1cccc(-c2cnc3c(NCc4ccc(S(N)(=O)=O)cc4)nccn23)c1 [Compound 12]
> 35 µM

Consider the molecule shown here: CCNS(=O)(=O)c1ccc(CNc2nccn3c(-c4ccc(OC)cc4)cnc23)cc1 [Compound 101] What is its recorded CC50?
> 35 µM

Fill in the blank: the reported CC50 of CS(=O)(=O)Nc1ccc(-c2cnc3c(NCc4ccc(S(N)(=O)=O)cc4)nccn23)cc1 [Compound 28] is ____.
> 35 µM

Report CC50 for COc1ccc(-c2cnc3c(NCc4ccco4)nccn23)cc1OC [Compound 68] please.
< 35 µM

Consider the molecule shown here: Oc1ccc(-c2cnc3c(NCc4ccc5c(c4)OCO5)nccn23)cc1 [Compound 61] What is its recorded CC50?
< 35 µM

Consider the molecule shown here: COc1ccc(CNc2nccn3c(-c4cccc(NS(C)(=O)=O)c4)cnc23)cc1 [Compound 83] What is its recorded CC50?
< 35 µM

Can you look up the measured CC50 of CN1CCN(c2ccc(-c3cnc4c(Nc5cccc(OC(F)(F)C(F)F)c5)nccn34)cn2)CC1 [Compound 63] for me?
< 35 µM

Any idea what its CC50 is? The molecule is OCc1ccc(-c2cnc3c(NCCc4ccncc4)nccn23)cc1 [Compound 3]
> 35 µM

Quick check: CC50 of Cc1cnc(NCc2ccc(S(N)(=O)=O)cc2)c2ncc(-c3ccc(O)cc3)n12 [Compound 108] ?
< 35 µM

Report CC50 for CS(=O)(=O)c1ccc(CNc2nccn3c(-c4ccc(O)cc4)cnc23)cc1 [Compound 32] please.
> 35 µM

Please look up its CC50: COc1cc(-c2cnc3c(NCc4cccc(S(N)(=O)=O)c4)nccn23)ccc1O [Compound 56]
< 35 µM

Reported CC50 for COc1ccc(-c2cnc3c(NCCCn4ccnc4)nccn23)cc1OC [Compound 30] : what is it?
> 35 µM

Quick check: CC50 of COc1ccc(-c2cnc3c(Nc4ccc(N5CCOCC5)cc4)nccn23)cc1OC [Compound 64] ?
< 35 µM

I am curious: what CC50 value has been reported for COc1cc(-c2cnc3c(NCc4ccc(S(N)(=O)=O)cc4)nc(C)cn23)ccc1O [Compound 112] ?
< 35 µM

Name the recorded CC50 for COc1ccc(-c2cnc3c(NCc4ccc(S(N)(=O)=O)cc4)nccn23)cc1 [Compound 16] .
> 35 µM

# lookup: CC50 of Cc1ccc(CNc2nccn3c(-c4ccc(O)cc4)cnc23)cc1 [Compound 38]
> 35 µM

Give its CC50 value. Item: N#Cc1cc(-c2cnc3c(NCc4ccc(S(N)(=O)=O)cc4)nccn23)ccc1O [Compound 51]
> 35 µM

Which value of CC50 has been reported for COc1ccc(-c2cnc3c(NCc4cnccn4)nccn23)cc1OC [Compound 23] in the records?
> 35 µM

Data request, read-out CC50, for Oc1cccc(-c2cnc3c(NCc4cccs4)nccn23)c1 [Compound 80]
< 35 µM

Reported CC50, molecule NS(=O)(=O)c1ccc(CNc2nccn3c(-c4ccc(OC(F)(F)F)cc4)cnc23)cc1 [Compound 15] : ____
> 35 µM

Hello, the source for this data is patent US8362018B2, in case you need it.
